Target under test: high affinity phorbol-ester binding sites (PKC)
Test parameters: read-out: affinity constant (Kd) of phorbol ester binding; control cell line R6-C1; intact cells; Scatchard; approximately the same in both cell lines
Quantity: pKd
Answers are plain numbers, as −log10 of the molar value.

# get_value(readout= pKd, system= high affinity phorbol-ester binding sites (PKC)) for CCCC(=O)O[C@@H]1[C@@H](C)[C@@]2(O)[C@@H](C=C(CO)C[C@]3(O)C(=O)C(C)=C[C@@H]23)[C@@H]2C(C)(C)[C@]12OC(=O)CCC
7.80
